The reported measurements were obtained from ChEMBL document CHEMBL3414438.

Molecular target: Adenosine receptor A2b (Homo sapiens, UniProt P29275)
Sequence (P29275 whole entry): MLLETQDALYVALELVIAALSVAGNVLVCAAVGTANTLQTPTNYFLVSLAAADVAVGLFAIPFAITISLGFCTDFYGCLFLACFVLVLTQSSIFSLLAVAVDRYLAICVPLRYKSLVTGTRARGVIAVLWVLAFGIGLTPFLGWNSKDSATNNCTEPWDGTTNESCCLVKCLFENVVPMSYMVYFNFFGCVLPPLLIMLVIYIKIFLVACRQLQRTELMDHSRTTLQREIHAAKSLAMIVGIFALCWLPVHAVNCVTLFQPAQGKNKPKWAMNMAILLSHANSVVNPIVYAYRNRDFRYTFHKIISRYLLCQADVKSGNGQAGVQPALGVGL
Assay: Agonist activity at human recombinant adenosine A2B receptor transfected in CHO cells assessed as induction of adenylyl cyclase activity
pEC50: −log10 of the molar value.
quantity: pEC50

[A] CCn1nnc([C@H]2O[C@@H](n3cnc4c(Nc5ccc(Cl)cc5F)ncnc43)[C@H](O)[C@@H]2O)n1
[B] CCn1nnc([C@H]2O[C@@H](n3cnc4c(NC5CCCO5)nc(Cl)nc43)[C@H](O)[C@@H]2O)n1 (some centres undefined)
[C] CCn1nnc([C@H]2O[C@@H](n3cnc4c(NC5CC5)nc(Cl)nc43)[C@H](O)[C@@H]2O)n1
Lab note: pEC50 ranking, ascending, for the listed compounds. Answer with the labels in sequence, matching the requested order.
B, C, A
